# TESTED SYSTEM: BRAF V600E (Homo sapiens, UniProt P15056, V600E)
# Construct: expressed in transfected cells
# Sequence (P15056 whole entry V600E): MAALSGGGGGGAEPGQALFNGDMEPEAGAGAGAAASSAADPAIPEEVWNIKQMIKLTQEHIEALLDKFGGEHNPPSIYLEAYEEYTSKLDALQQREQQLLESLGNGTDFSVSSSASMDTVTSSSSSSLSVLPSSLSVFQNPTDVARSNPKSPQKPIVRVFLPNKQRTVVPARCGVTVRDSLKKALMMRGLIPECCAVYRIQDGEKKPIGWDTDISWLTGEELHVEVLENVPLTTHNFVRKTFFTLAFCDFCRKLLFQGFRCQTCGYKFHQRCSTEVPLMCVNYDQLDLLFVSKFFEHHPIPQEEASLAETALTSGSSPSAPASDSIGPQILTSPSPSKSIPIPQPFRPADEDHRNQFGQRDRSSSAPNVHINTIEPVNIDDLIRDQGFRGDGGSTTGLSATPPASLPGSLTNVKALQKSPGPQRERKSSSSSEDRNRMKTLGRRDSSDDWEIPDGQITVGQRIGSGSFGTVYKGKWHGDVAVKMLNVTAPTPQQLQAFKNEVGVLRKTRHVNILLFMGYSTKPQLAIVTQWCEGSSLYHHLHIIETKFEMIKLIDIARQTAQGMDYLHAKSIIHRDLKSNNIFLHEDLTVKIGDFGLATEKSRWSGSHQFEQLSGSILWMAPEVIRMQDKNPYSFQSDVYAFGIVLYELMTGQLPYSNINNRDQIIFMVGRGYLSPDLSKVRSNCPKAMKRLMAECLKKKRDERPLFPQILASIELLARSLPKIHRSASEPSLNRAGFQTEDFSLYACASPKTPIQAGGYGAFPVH
# ASSAY COMMENT: Cellular assay of target protein degradation, T-Rex 293 cells stably transfected with HA-BRAF_V600E (HA immunofluorescence, high content imaging)
# Format: cell-based
# STATED CONDITIONS: half maximal degradation, T-Rex 293 HA-BRAF V600E; read-out: BRaf V600E DC50
What DC50 was measured for each of the following?

# get_value(readout= DC50, system= BRAF V600E (Homo sapiens, UniProt P15056, V600E)) for O=C1CC[C@@H](N2Cc3cc([C@@H](O)CCN4CCC(c5ccc(-c6cnc7[nH]cc(C(=O)c8c(F)ccc(NS(=O)(=O)N9CC[C@@H](F)C9)c8F)c7c6)cc5)CC4)ccc3C2=O)C(=O)N1 5 to 50 nM

API: value(readout=DC50, system=BRAF V600E (Homo sapiens, UniProt P15056, V600E)) for record O=C1CCC(N2Cc3cc(N4CC(CN5CCN(C6(c7ccc(-c8cnc9[nH]cc(C(=O)c%10c(F)ccc(NS(=O)(=O)N%11CC[C@@H](F)C%11)c%10F)c9c8)cc7)CC6)CC5)C4)ccc3C2=O)C(=O)N1 (some centres unmarked) 50 to 500 nM

Query DC50 on BRAF V600E (Homo sapiens, UniProt P15056, V600E) for O=C1CCC(N2Cc3cc(CCCCN4CCN(c5ccc(-c6cnc7[nH]cc(C(=O)c8c(F)ccc(NS(=O)(=O)N9CC[C@@H](F)C9)c8F)c7c6)cc5)CC4)ccc3C2=O)C(=O)N1 (some centres unmarked) 5 to 50 nM

Under BRAF V600E (Homo sapiens, UniProt P15056, V600E): DC50 value of O=C1CCC(N2Cc3cc(N4CCC(CC5CN(c6ccc(-c7cnc8[nH]cc(C(=O)c9c(F)ccc(NS(=O)(=O)N%10CC[C@@H](F)C%10)c9F)c8c7)cc6)C5)CC4)ccc3C2=O)C(=O)N1 (some centres unmarked) ? 50 to 500 nM

Field: DC50 (BRAF V600E (Homo sapiens, UniProt P15056, V600E)). Entry: COc1cc(C2CCN(CC3CCN(c4ccc(-c5cnc6[nH]cc(C(=O)c7c(F)ccc(NS(=O)(=O)N8CC[C@@H](F)C8)c7F)c6c5)cc4)CC3)CC2)ccc1C(=O)NC1CCC(=O)NC1=O (some centres unmarked) 5 to 50 nM
